- Assayed System: human epidermal growth factor receptor 2 (HER2) (human, UniProt P04626 23-1255)
- Experimental Details: cell-based or functional assay
Answer each item with its documented EC50 of A431 cell kill, anti-kappa-ETA'-conjugated antibody.

INSERT INTO measurements (binder, experimental_result) VALUES
  ('HER2 antibody 091 (antibody, V domains shown) VH: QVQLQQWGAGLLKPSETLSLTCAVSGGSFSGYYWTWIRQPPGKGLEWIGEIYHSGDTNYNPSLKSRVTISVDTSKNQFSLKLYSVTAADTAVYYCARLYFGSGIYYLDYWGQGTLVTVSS VL: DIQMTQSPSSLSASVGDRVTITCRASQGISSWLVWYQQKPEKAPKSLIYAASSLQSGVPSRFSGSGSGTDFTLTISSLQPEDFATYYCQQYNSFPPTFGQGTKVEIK', '~9.86 ng/mL'),
  ('HER2 antibody 153 (antibody, V domains shown) VH: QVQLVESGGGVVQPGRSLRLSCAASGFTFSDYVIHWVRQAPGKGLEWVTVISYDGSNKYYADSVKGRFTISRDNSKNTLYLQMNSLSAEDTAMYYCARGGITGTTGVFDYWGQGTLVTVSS VL: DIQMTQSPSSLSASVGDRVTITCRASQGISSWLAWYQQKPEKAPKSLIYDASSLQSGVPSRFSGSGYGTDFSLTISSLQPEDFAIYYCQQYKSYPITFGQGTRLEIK', '~10.1 ng/mL'),
  ('HER2 antibody 129 (antibody, V domains shown) VH: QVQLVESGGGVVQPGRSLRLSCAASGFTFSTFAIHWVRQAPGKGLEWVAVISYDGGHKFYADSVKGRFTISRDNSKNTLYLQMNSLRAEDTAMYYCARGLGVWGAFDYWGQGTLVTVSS VL: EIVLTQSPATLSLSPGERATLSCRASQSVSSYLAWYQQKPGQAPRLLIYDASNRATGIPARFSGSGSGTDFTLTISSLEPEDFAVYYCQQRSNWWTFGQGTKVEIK', '~10.6 ng/mL'),
  ('HER2 antibody 098 (antibody, V domains shown, also called PC1014-098; TH1014-098) VH: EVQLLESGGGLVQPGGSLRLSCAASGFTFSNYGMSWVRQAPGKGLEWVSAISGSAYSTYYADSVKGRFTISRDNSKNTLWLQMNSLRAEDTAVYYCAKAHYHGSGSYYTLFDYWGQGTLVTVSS VL: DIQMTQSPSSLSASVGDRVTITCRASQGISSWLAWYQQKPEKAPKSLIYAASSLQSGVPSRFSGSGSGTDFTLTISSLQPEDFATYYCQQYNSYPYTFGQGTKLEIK', '1.65 ng/mL');

Quick note, EC50 of A431 cell kill, anti-kappa-ETA'-conjugated antibody for HER2 antibody 025 (antibody, V domains shown, also called HuMab-025; PC1014-025) VH: QVQLQQWGAGLLKPSETLSLTCAVYGGSFSDYYWNWIRQPPGKGLEWIGEIHHSGSTNYNPSLKSRVTISVDTSKNQFSLKLSSVTAADTAVYYCARGYYDSGVYYFDYWAQGTLVTVSS VL: DIQMTQSPSSLSASVGDRVTITCRASQGISRWLAWYQQKPEKAPKSLIYAASSLRSGVPSRFSGSGSGTDFTLTISSLQPEDFATYYCQQYNSYPITFGQGTRLEIK landed at ~9.77 ng/mL
